# System: Vero E6 infected with SARS-CoV-2
# METHOD DESCRIPTION: inhibition of SARS-CoV-2 cytopathic effect; higher = more antiviral protection, active = above 15
# STATED CONDITIONS: 1 nM; 48 h
In this section we review reported inhibition of SARS-CoV-2 cytopathic effect values for a set of compounds.
# number only, unit % dropped from output

>>> df
                                   compound                               tgt  readout_unit  result_number
0      O=C(O)c1nn(Cc2ccc(Cl)cc2Cl)c2ccccc12  Vero E6 infected with SARS-CoV-2             %          -0.69
1  O[C@H]([C@H](O)[C@@H]1CO1)[C@H]1CO1 [dianhydrogalactitol]  Vero E6 infected with SARS-CoV-2             %          -0.61
2  C#C[C@]1(O)CC[C@H]2[C@@H]3CCC4=C(CCC(=O)C4)[C@H]3CC[C@@]21C  Vero E6 infected with SARS-CoV-2             %           0.57
3  CCO/N=C(\C(=O)N[C@@H]1C(=O)N2C(C(=O)[O-])=C(Sc3nc(-c4cc[n+](C)cc4)cs3)CS[C@H]12)c1nsc(NP(=O)(O)O)n1  Vero E6 infected with SARS-CoV-2             %           3.38

The measured inhibition of SARS-CoV-2 cytopathic effect associated with CCOc1cc(C(=O)N2CCC(N3CCN(C)CC3)CC2)ccc1Nc1ncc2c(n1)N(C1CCCC1)c1ccccc1C(=O)N2C reads 0.46

The measured inhibition of SARS-CoV-2 cytopathic effect associated with CN1[C@@H]2CC[C@H]1C[C@@H](OC1c3ccccc3CCc3ccccc31)C2 reads 0.19

The measured inhibition of SARS-CoV-2 cytopathic effect associated with CC(C)(C)c1ccc(-c2nc3ccccc3[nH]2)cc1 reads -0.43

The measured inhibition of SARS-CoV-2 cytopathic effect associated with CC(C)OC(=O)N1CCC(Oc2ncnc3c2cnn3-c2ccc(S(C)(=O)=O)cc2F)CC1 reads -4.65

====

# Test system: Vero E6 infected with SARS-CoV-2
# METHOD DESCRIPTION: inhibition of SARS-CoV-2 cytopathic effect; higher = more antiviral protection, active = above 15
# STATED CONDITIONS: 8.33 nM; 48 h
In this section we review reported inhibition of SARS-CoV-2 cytopathic effect values for a set of molecules.
# number only, unit % dropped from output

# example entries with known answers
MOLECULE	TGT	READOUT UNIT	RESULT NUMBER
CCC(c1ccccc1)c1c(O)c2ccccc2oc1=O (stereo not drawn) [phenprocoumon]	Vero E6 infected with SARS-CoV-2	%	0.6
COc1cc2c(cc1OC)[C@@H](Cc1cc(OC)c(OC)c(OC)c1)[N+](C)(CCCOC(=O)CC/C=C/CCC(=O)OCCC[N+]1(C)CCc3cc(OC)c(OC)cc3[C@H]1Cc1cc(OC)c(OC)c(OC)c1)CC2 (stereo partly drawn) [mivacurium]	Vero E6 infected with SARS-CoV-2	%	-1.95
CS(=O)(=O)N(Cc1ccco1)C[C@@H](O)Cn1c2ccccc2c2ccccc21	Vero E6 infected with SARS-CoV-2	%	2.61

The measured inhibition of SARS-CoV-2 cytopathic effect associated with CN1C(=O)CCS(=O)(=O)C1c1ccc(Cl)cc1 (stereo not drawn) [chlormezanone] reads -0.15
